Source of measurements: PubChem BioAssay (Tox21)

- procedure-details: qHTS assay for small molecule agonists of the p53 signaling pathway - cell viability (AID 651633); also: nearly all actives have a fitted effect of over 30% in size; also: potency is read from the fitted curve at half-maximal effect
- test-parameters: p53RE-bla HCT-116 viability, ATP luminescence, 16 h; series mostly up to 83.3 µM
Results filed as inconclusive are left out. The source made the active and inactive calls. Calls follow the shape of the full dose curve.

| molecule | Potency |
| --- | --- |
| Nc1nc(=O)n([C@@H]2CS[C@H](CO)O2)cc1F | inactive |
| CC(=O)N[C@@H]([C@@H](O)[C@H](O)[C@H](O)CO)[C@@H](O)CC(=O)C(=O)O | inactive |
| CC(C)(S)[C@@H](N)C(=O)O | inactive |
| C/C1=C2N=C(/C=C3N=C(/C(C)=C4\[N-][C@@](C)([C@@H]5N=C1[C@](C)(CCC(=O)NCC(C)OP(=O)(O)O[C@H]1[C@@H](O)[C@@H](n6cnc7cc(C)c(C)cc76)O[C@@H]1CO)[C@H]5CC(N)=O)[C@@](C)(CC(N)=O)[C@@H]4CCC(N)=O)[C@@](C)(CC(N)=O)[C@@H]\3CCC(N)=O)C(C)(C)[C@@H]/2CCC(N)=O.CC(=O)O.[Co] (stereo partly specified) | inactive |
| CO[C@H]1C[C@H](O[C@H]2[C@H](C)O[C@@H](O[C@@H]3/C(C)=C/C[C@@H]4C[C@@H](C[C@]5(C=C[C@H](C)[C@@H](C6CCCCC6)O5)O4)OC(=O)[C@@H]4C=C(C)[C@@H](O)[C@H]5OC/C(=C\C=C\[C@@H]3C)[C@]54O)C[C@@H]2OC)O[C@@H](C)[C@@H]1O | 6.68 µM (active) |
| CN1CC(O)c2cc(N=NC(N)=O)c(O)cc21 (stereo unspecified) | inactive |

* * *

- procedure-details: qHTS assay for identifying genotoxic compounds that show differential cytotoxicity against isogenic chicken DT40 cell lines with known DNA damage response pathways - Rev3 mutant cell line (AID 743014); also: nearly all actives have a fitted effect of over 55% in size
- test-parameters: chicken DT40 Rev3-/- viability, CellTiter-Glo, 40 h; series mostly up to 68.4 µM
Results filed as inconclusive are left out. The source made the active and inactive calls. Calls follow the shape of the dose curve; as a rule, active = well fitted cell-killing curve with a large enough effect in the repeat runs; inconclusive = weak or mixed curves, or effect the other way; inactive = no such curve, though single readings can be large or run the other way.
Outcomes: label 1 for active, label 0 for inactive

| compound | answer-label |
| --- | --- |
| CC(O)[C@@H]1NC(=O)[C@H](Cc2ccccc2)NC(=O)[C@H](C(C)O)NC(=O)[C@H](CCCCN)NC(=O)[C@H](Cc2c[nH]c3ccccc23)NC(=O)[C@H](Cc2ccccc2)NC(=O)[C@H](Cc2ccccc2)NC(=O)[C@H](CC(N)=O)NC(=O)[C@H](CCCCN)NC(=O)[C@@H](NC(=O)CNC(=O)[C@H](C)N)CSSC[C@@H](C(=O)O)NC(=O)[C@H](CO)NC1=O (some centres not stated) | label 0 |
| CCC(=O)O[C@]1(C(=O)CCl)[C@@H](C)C[C@H]2[C@@H]3C[C@H](F)C4=CC(=O)C=C[C@]4(C)[C@@]3(F)[C@@H](O)C[C@@]21C | label 1 |

* * *

- study-target: Nuclear receptor subfamily 1 group I member 2 (Rattus norvegicus) (UniProt Q9R1A7)
- Sequence (Q9R1A7 whole entry, looked up): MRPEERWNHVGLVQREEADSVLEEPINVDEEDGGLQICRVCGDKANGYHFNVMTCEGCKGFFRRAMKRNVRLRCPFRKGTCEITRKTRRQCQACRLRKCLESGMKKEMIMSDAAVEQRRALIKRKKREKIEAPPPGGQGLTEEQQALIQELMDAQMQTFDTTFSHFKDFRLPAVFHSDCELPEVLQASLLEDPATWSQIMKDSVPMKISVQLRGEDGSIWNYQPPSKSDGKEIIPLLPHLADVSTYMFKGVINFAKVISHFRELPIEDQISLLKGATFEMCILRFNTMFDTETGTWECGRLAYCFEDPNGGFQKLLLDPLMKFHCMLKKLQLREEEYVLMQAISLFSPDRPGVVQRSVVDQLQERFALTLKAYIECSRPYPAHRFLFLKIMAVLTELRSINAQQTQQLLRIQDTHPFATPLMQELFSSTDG
- procedure-details: Rat pregnane X receptor (rPXR) activation by small molecules, qHTS assay (AID 1346983); also: % is scaled to controls: 0 for no effect and ±100 for the full control effect; nearly all actives have a fitted effect of over 20% in size
- test-parameters: rPXR luciferase reporter cells, One-Glo luminescence, 24 h; active compounds read high
Inconclusive results are not listed. Active and inactive are the calls of the source. The call rests on the fitted dose curve; in most records, active means well fitted activation curve with a large enough effect in the repeat runs; inconclusive means weak or mixed curves; inactive means no such curve, though single readings can be large or run the other way. Non-standard residues stand in square brackets, D forms with d. Residues, ends and D or L forms follow the SMILES beside them. pGlu = O=C1CC[C@@H](C(=O)O)N1; Thz = O=C(O)[C@@H]1CSCN1
Attribute: max activation

| molecule | max activation |
| --- | --- |
| CN1CCN2c3ncccc3Cc3ccccc3C2C1 (stereo not given) | -0.13% (inactive) |
| C[C@@](Cc1ccc(O)c(O)c1)(NN)C(=O)O | -6.63% (inactive) |
| O=C(O)c1cc(N=Nc2ccc(O)c(C(=O)O)c2)ccc1O | -4.04% (inactive) |
| CCc1ccc2c(c1)N(CC(C)CN(C)C)c1ccccc1S2 (stereo not given) | 1.61% (inactive) |
| CC(=O)Nc1c(I)c(C(=O)N[C@H]2C(O)O[C@H](CO)[C@@H](O)[C@@H]2O)c(I)c(N(C)C(C)=O)c1I (stereo not given in full) | -3.77% (inactive) |
| O=c1oc2cc(O)ccc2s1 | -17.1% (inactive) |
| CN[C@@H]1[C@H](O[C@H]2[C@H](O[C@H]3[C@H](O)[C@@H](O)[C@H](N=C(N)N)[C@@H](O)[C@@H]3N=C(N)N)O[C@@H](C)[C@]2(O)C=O)O[C@@H](CO)[C@H](O)[C@H]1O | -1.83% (inactive) |
| Cc1nc(NS(=O)(=O)c2ccc(N)cc2)nc(C)c1Br | -1.45% (inactive) |
| CCC(Oc1ccccc1)C(=O)N[C@@H]1C(=O)N2[C@@H]1SC(C)(C)[C@@H]2C(=O)O (stereo not given in full) | -1.86% (inactive) |
| COc1ccc(C[C@H](C)NC[C@@H](O)c2ccc(O)c(NC=O)c2)cc1 | -1.02% (inactive) |
| O=C1CC[C@@H](C(=O)N2CSC[C@H]2C(=O)O)N1 ([pGlu]-[Thz]-OH) | 0.797% (inactive) |
| C[C@@H](O)[C@H]1C(=O)N2C(C(=O)[O-])=C(SC3Cn4cnc[n+]4C3)[C@H](C)[C@H]12 (stereo not given in full) | 0.401% (inactive) |
| COc1c(O[C@@H]2O[C@H](CO)[C@@H](O)[C@H](O)[C@H]2O)cc2c(c1OC)-c1ccc(SC)c(=O)cc1[C@@H](NC(C)=O)CC2 | -2.99% (inactive) |
| Cc1ncc(C[n+]2csc(CCOP(=O)(O)OP(=O)(O)O)c2C)c(N)n1 | -0.276% (inactive) |
| CC(CCc1ccc(O)cc1)NCC(O)c1ccc(O)cc1 (stereo not given) | -0.789% (inactive) |
| CCC(=O)c1ccc2c(c1)N(CCCN1CCN(CCO)CC1)c1ccccc1S2 | -17.5% (inactive) |
| O=[n+]1ccn([O-])c2ccccc21 | -1.36% (inactive) |
| CCCCCCCCCCCCCCCCCC(=O)OCC(C)O (stereo not given) | -10.2% (inactive) |
| CC(C)CCCC(C)NC(C)C (stereo not given) | -0.288% (inactive) |
| CNCC(O)c1ccc(OC(=O)C(C)(C)C)c(OC(=O)C(C)(C)C)c1 (stereo not given) | 0.121% (inactive) |
| COc1ccc2c(=O)c(C)c(-c3ccccc3)oc2c1CN(C)C | -1.96% (inactive) |
| CC(C)CCC[C@@H](C)[C@H]1CC(=O)C2=C3CC[C@H]4C[C@@H](O)CC[C@]4(C)[C@H]3CC[C@@]21C | -2.36% (inactive) |
| CO[C@H]1C[C@@H]2CC[C@@H](C)[C@@](O)(O2)C(=O)C(=O)N2CCCC[C@H]2C(=O)O[C@H]([C@H](C)C[C@@H]2CC[C@@H](OC(=O)C(C)(CO)CO)[C@H](OC)C2)CC(=O)[C@H](C)/C=C(\C)[C@@H](O)[C@@H](OC)C(=O)[C@H](C)C[C@H](C)/C=C/C=C/C=C/1C | 0.976% (inactive) |
| O=C1N=C2SCCN2C(=O)C1Cc1ccc(Cl)cc1 (stereo not given) | -2.07% (inactive) |
| O=C(CCCCCCCCCCCCC1CCCC1)Nc1ccc(S(=O)(=O)c2ccc(NC(=O)CCCCCCCCCCCCC3CCCC3)cc2)cc1 | -2.51% (inactive) |
| CN1CCCC(CN2c3ccccc3Sc3ccccc32)C1 (stereo not given) | -5.65% (inactive) |
| CO[C@H]1O[C@@H]2O[C@@]3(C)CC[C@H]4[C@H](C)CC[C@@H]([C@H]1C)[C@@]24OO3 | -2.27% (inactive) |
| CCOC(=O)c1c[nH]c2cc(OCC(C)C)c(OCC(C)C)cc2c1=O | -0.745% (inactive) |
| Nc1ncnc2c1ncn2[C@@H]1O[C@H](COP(=O)(O)OP(=O)(O)OP(=O)(O)O)[C@@H](O)[C@H]1O | 2.22% (inactive) |
| C=CCSSSCC=C | 0.11% (inactive) |
| O=C(OCc1ccccc1)c1cccnc1 | 6.76% (inactive) |
| COC(=O)[C@H]1[C@H]2C[C@@H]3c4[nH]c5cc(OC)ccc5c4CCN3C[C@H]2C[C@H](OC)[C@@H]1OC | 6.76% (inactive) |
| C[C@H](O)[C@H](O)[C@H]1CNc2nc(N)[nH]c(=O)c2N1 | -2.27% (inactive) |
| CCN1C(=O)NC(c2ccccc2)C1=O (stereo not given) | 7.71% (inactive) |
| C[C@]12CC[C@@H]3c4ccc(O)cc4CC[C@H]3[C@@H]1CC[C@@H]2OP(=O)(O)O | 0.522% (inactive) |
| Cc1cc2nc3c(=O)[nH]c(=O)nc-3n(C[C@H](O)[C@H](O)[C@H](O)COP(=O)(O)OP(=O)(O)OC[C@H]3O[C@@H](n4cnc5c(N)ncnc54)[C@H](O)[C@@H]3O)c2cc1C | -0.0695% (inactive) |
| C[C@H]1[C@@H](OC(=O)CCC(=O)O)O[C@@H]2OC3(C)CC[C@H]4[C@H](C)CC[C@@H]1[C@@]24OO3 | -13.4% (inactive) |
| C#C[C@]1(O)CC[C@H]2[C@@H]3CCC4=CCCC[C@@H]4[C@H]3C(=C)C[C@@]21CC | -4.59% (inactive) |
| CS(=O)(=O)OCC(O)C(O)COS(C)(=O)=O (stereo not given) | -4.2% (inactive) |
| CC(C)NCC(O)COc1ccccc1-n1cccc1 (stereo not given) | 1.86% (inactive) |
